Molecular target: recombinant human IL17a (binding to its receptor IL17R) (Homo sapiens, UniProt Q16552)
Construct: 177-IR (IL17R/Fc)
Test: IL-17 competition ELISA I (IL17a coated, IL17R/Fc binding)
Procedure: ELISA I: The ability of the compounds to block binding of IL17a to its receptor, IL17R, was analyzed in a competition ELISA format. High binding 96-well plates (Costar #9018) were coated with 20 nM of recombinant human IL17a (R&D Systems #317-ILB) in PBS (0.64 μg/mL), 100 μL/well, for 30 min at 37′C followed by 5 min at 4′C. […] After the sufficient color development, the reaction was fixed by the addition of 100 μL/well 0.5 N HCl and absorbance was measured at 450 nm on Biotek plate reader. […]
# Lookup of reported IC50 keyed by entry

Line Notation	IC50
O=C1CNC(=O)[C@@H](Cc2ccc(NC(=O)[C@@H](NC(=O)c3cccnc3)C3CCCCC3)cc2)NC(=O)CC2(CCCC2)CC(=O)N[C@H](C(=O)O)CCCCN1	100 to 1000 nM
O=C1CNC(=O)[C@@H](Cc2ccc(NC(=O)[C@H](Cc3ccccc3Cl)NC(=O)c3ccccc3F)cc2)NC(=O)CC2(CCCC2)CC(=O)NCCCCCN1	< 100 nM
O=C1CNC(=O)[C@@H](Cc2ccc(NC(=O)[C@@H](NC(=O)Cc3ccc(CO)cc3)C3CCCCC3)cc2)NC(=O)CC2(CCCC2)CC(=O)NCCCCCN1	100 to 1000 nM

* * *

# Lookup of reported IC50 keyed by entry
Molecular target: recombinant human IL17a (binding to its receptor IL17R) (Homo sapiens)
Construct: purchased R&D Systems 317-ILB (IL17a); 177-IR (IL17R/Fc)
Sequence (Q16552 20-155 limits assumed): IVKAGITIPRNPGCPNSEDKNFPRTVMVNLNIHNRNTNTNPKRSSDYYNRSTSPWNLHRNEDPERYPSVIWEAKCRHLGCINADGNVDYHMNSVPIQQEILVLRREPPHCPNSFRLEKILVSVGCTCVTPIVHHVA
Assay: IL-17 competition ELISA I (IL17a coated, IL17R/Fc binding)

Compound	Target Desc	IC50
O=C1CNC(=O)[C@@H](Cc2ccc(NC(=O)[C@H](Cc3ccccc3Cl)NC(=O)C3CCCCC3)cc2)NC(=O)CC2(CCCC2)CC(=O)NCCCCCN1 [Compound 207]	recombinant human IL17a (binding to its receptor IL17R) (Homo sapiens)	100 to 1000 nM
O=C1CNC(=O)[C@@H](Cc2ccc(NC(=O)[C@H](Cc3ccccc3Cl)NC(=O)Cc3ccc(CO)cc3)cc2)NC(=O)CC2(CCCC2)CC(=O)NCCCCCN1 [Compound 218]	recombinant human IL17a (binding to its receptor IL17R) (Homo sapiens)	< 100 nM
O=C1CNC(=O)[C@@H](Cc2ccc(NC(=O)[C@H](Cc3ccccc3Cl)NC(=O)CC3CCOCC3)cc2)NC(=O)CC2(CCCC2)CC(=O)NCCCCCN1 [Compound 275]	recombinant human IL17a (binding to its receptor IL17R) (Homo sapiens)	100 to 1000 nM
O=C1CNC(=O)[C@@H](Cc2ccc(NC(=O)[C@H](Cc3ccco3)NC(=O)Cc3ccccc3)cc2)NC(=O)CC2(CCCC2)CC(=O)NCCCCCN1 [Compound 230]	recombinant human IL17a (binding to its receptor IL17R) (Homo sapiens)	< 100 nM
O=C1CC2(CCCC2)CC(=O)N[C@H](Cc2ccc(NC(=O)[C@H](Cc3ccccc3Cl)NC(=O)Cc3ccc(CO)cc3)cc2)C(=O)NCCCCCCCN1 [Compound 356]	recombinant human IL17a (binding to its receptor IL17R) (Homo sapiens)	100 to 1000 nM
O=C1CNC(=O)[C@@H](Cc2ccc(NC(=O)[C@@H](NC(=O)c3cccc(F)c3)C3CCCCC3)cc2)NC(=O)CC2(CCCC2)CC(=O)NCCCCCN1 [Compound 382]	recombinant human IL17a (binding to its receptor IL17R) (Homo sapiens)	100 to 1000 nM

* * *

Target: biotinylated human IL-17 (binding to IL17R/Fc) (Homo sapiens)
Construct: 177-IR (IL17R/Fc)
Sequence (Q16552 20-155 limits assumed): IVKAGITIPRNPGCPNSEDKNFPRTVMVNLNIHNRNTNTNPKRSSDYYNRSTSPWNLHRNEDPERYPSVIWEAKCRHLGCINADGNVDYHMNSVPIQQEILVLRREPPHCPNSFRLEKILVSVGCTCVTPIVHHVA
Test: IL-17 competition ELISA II (captured IL17R/Fc, biotinylated IL-17)
# Lookup of reported IC50 keyed by entry
Recorded Metric: IC50

Line Notation	Endpoint Result
O=C1CC2(CCCC2)CC(=O)N[C@H](Cc2ccc(NC(=O)[C@@H](NC(=O)c3ccncc3)C3CCCCC3)cc2)C(=O)N[C@H](Cc2ccccn2)C(=O)NCCCCCN1	100 to 1000 nM
C[C@H]1NC(=O)[C@@H](Cc2ccc(NC(=O)[C@H](Cc3ccccc3Cl)NC(=O)Cc3ccc(F)cc3)cc2)NC(=O)[C@H]2CC[C@H](CC2)C(=O)NCCCCCNC1=O	100 to 1000 nM
CN1CCNC(=O)CC2(CCCC2)CC(=O)N[C@H](Cc2ccc(NC(=O)[C@H](Cc3ccccc3Cl)NC(=O)Cc3ccccc3)cc2)C(=O)N[C@H](Cc2ccccc2)C(=O)N(C)CC1	< 100 nM
C[C@H]1NC(=O)[C@@H](Cc2ccc(NC(=O)[C@H](Cc3ccccc3Cl)NC(=O)C(F)(F)c3ccccc3)cc2)NC(=O)CC2(CCCC2)CC(=O)N(C)CCOCCN(C)C1=O	< 100 nM
O=C1CNC(=O)[C@@H](Cc2ccc(NC(=O)[C@@H](NC(=O)C(F)F)C3CCCCC3)cc2)NC(=O)CC2(CCCC2)CC(=O)OCCCCCN1	< 100 nM

* * *

# Lookup of reported IC50 keyed by entry
Target: biotinylated human IL-17 (binding to IL17R/Fc) (Homo sapiens)
Construct: 177-IR (IL17R/Fc)
Sequence (Q16552 20-155 limits assumed): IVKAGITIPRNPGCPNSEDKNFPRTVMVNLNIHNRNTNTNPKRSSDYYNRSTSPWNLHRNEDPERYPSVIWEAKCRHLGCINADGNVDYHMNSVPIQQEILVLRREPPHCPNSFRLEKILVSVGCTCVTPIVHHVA
Assay: IL-17 competition ELISA II (captured IL17R/Fc, biotinylated IL-17)

Compound	IC50
C[C@H]1NC(=O)[C@@H](Cc2ccc(NC(=O)[C@H](Cc3ccccc3Cl)NC(=O)Cc3ccc(F)cc3)cc2)NC(=O)CC2(CCCC2)NC(=O)CCCCCCCNC1=O [Compound 619]	< 100 nM
CN(C)CC[C@H]1NC(=O)[C@@H](Cc2ccc(NC(=O)[C@H](Cc3ccccc3Cl)NC(=O)C(F)(F)c3ccccc3)cc2)NC(=O)CC2(CCCC2)CC(=O)N(C)CCOCCN(C)C1=O [Compound 642]	< 100 nM
O=C1CNC(=O)[C@@H](Cc2ccc(NC(=O)[C@H](Cc3ccccc3Cl)NC(=O)NCc3ccccc3)cc2)NC(=O)CC2(CCCC2)CC(=O)NCCCCCN1 [Compound 302]	< 100 nM

* * *

Target: biotinylated human IL-17 (binding to IL17R/Fc) (Homo sapiens)
Construct: 177-IR (IL17R/Fc)
Sequence (Q16552 20-155 limits assumed): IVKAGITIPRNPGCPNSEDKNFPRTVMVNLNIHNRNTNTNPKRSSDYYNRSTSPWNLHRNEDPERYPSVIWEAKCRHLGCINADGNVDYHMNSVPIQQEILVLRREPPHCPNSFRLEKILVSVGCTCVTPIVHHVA
Test: IL-17 competition ELISA II (captured IL17R/Fc, biotinylated IL-17)
Recorded Metric: IC50

Line Notation	Endpoint Result
O=C1CC2(CCCC2)CC(=O)N[C@H](Cc2ccc(NC(=O)[C@H](Cc3ccccc3Cl)NC(=O)C(F)(F)c3ccccc3)cc2)C(=O)NCCN2CCN(CCN1)CC2	100 to 1000 nM
O=C1CC2(CCCC2)CC(=O)N[C@H](Cc2ccc(NC(=O)[C@H](Cc3ccccc3Cl)NC(=O)c3cccnc3)cc2)C(=O)NCCCCCCCCN1	< 100 nM
CN1CCCC[C@@H](C(=O)O)N(C)C(=O)CC2(CCCC2)CC(=O)N[C@H](Cc2ccc(NC(=O)[C@H](Cc3ccccc3Cl)NC(=O)C(F)(F)c3ccccc3)cc2)C(=O)N[C@H](CCC(N)=O)C1=O	< 100 nM
CC(C)OC(=O)N[C@@H](Cc1ccccc1Cl)C(=O)Nc1ccc(C[C@H]2NC(=O)CC3(CCCC3)CC(=O)NCCCCCNC(=O)[C@@H](C)NC2=O)cc1	< 100 nM
C[C@H]1NC(=O)[C@@H](Cc2ccc(NC(=O)[C@@H](NC(=O)C(F)(F)c3ccccc3)C3CCCCC3)cc2)NC(=O)CC2(CCCC2)CC(=O)N(C)CCOCCN(C)C1=O	< 100 nM
